- PROCEDURE_TEXT: Proteolytic stability in trypsin/chymotrypsin solution, monitored by RP-HPLC
- Assay type: in vitro ADME
- STATED_CONDITIONS: in vitro, FIG. 14A, read-out: half-life (converted)
PROPERTY_LABEL: half-life (h)
The reply should contain only the number, in h.

For the compound CC[C@H](C)[C@H](NC(=O)[C@H](Cc1ccccc1)NC(=O)[C@H](CC(=O)O)NC(=O)[C@H](CCCNC(=N)N)NC(=O)[C@H](Cc1ccccc1)NC(=O)[C@H](Cc1ccccc1)NC(=O)[C@H](CCCCN)NC(=O)[C@H](CO)NC(=O)[C@H](CC(C)C)NC(=O)[C@H](CCCNC(=N)N)NC(=O)[C@H](CCSC)NC(=O)[C@H](C)N)C(=O)N[C@@H](CC(C)C)C(=O)N[C@@H](CCC(N)=O)C(=O)N[C@@H](CCCNC(=N)N)C(=O)N[C@@H](CCCCN)C(=O)N[C@@H](CCCCN)C(=O)O [CSP1-E1A, A-M-R-L-S-K-F-F-R-D-F-I-L-Q-R-K-K] , give its reported half-life.
1.5
